Source of measurements: patent US20230416329A1

# Target or test system: bovine trypsin (Bos taurus, UniProt P00760)
# Sequence (P00760 24-246): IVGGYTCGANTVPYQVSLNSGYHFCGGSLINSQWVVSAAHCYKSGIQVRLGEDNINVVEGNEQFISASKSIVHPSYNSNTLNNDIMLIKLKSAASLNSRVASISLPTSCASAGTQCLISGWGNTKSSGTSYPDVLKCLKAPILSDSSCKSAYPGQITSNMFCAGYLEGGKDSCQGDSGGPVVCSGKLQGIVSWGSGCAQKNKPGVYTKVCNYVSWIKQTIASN
# Assay info: Trypsin inhibitory activity of peptides (BApNA hydrolysis, OD405; IC50, Ki, residual activity)
# Format: biochemical
# Experimental conditions: peptide 0.0098 μM
Bridge positions count the residues as written; N and C are the ends. Peptide text beside a SMILES is read from it.
Assay readout: Residual trypsin activity
Give the number first and the unit second.

Fill in reported Residual trypsin activity for this entry: CC[C@H](C)[C@@H]1NC(=O)[C@@H]2CCCN2C(=O)[C@@H]2CCCN2C(=O)[C@H]([C@@H](C)CC)NC(=O)[C@H](CO)NC(=O)[C@H](CCCCN)NC(=O)[C@H]([C@@H](C)O)NC(=O)[C@H](C)NC(=O)[C@H](CCCNC(=N)N)NC(=O)CNC(=O)[C@@H](N)CSSC[C@@H](C(=O)N[C@@H](Cc2ccccc2)C(=O)O)NC1=O [BT9] (H-CGRATKSIPPICF-OH; disulfide 1-12; C-terminus assumed)
94.3 ± 1.3%

Fill in reported Residual trypsin activity for this entry: CC[C@H](C)[C@@H]1NC(=O)[C@@H]2CCCN2C(=O)[C@@H]2CCCN2C(=O)[C@H]([C@@H](C)CC)NC(=O)[C@H](CO)NC(=O)[C@H](CCCCN)NC(=O)[C@H]([C@@H](C)O)NC(=O)[C@H](CCC(N)=O)NC(=O)[C@H](CCCNC(=N)N)NC(=O)CNC(=O)[C@@H](N)CSSC[C@@H](C(=O)N[C@@H](Cc2ccccc2)C(=O)O)NC1=O [BT54] (H-CGRQTKSIPPICF-OH; disulfide 1-12; C-terminus assumed)
99.9 ± 4.1%

###

# Target or test system: elastase (Sus scrofa)
# Sequence (P00772 27-266): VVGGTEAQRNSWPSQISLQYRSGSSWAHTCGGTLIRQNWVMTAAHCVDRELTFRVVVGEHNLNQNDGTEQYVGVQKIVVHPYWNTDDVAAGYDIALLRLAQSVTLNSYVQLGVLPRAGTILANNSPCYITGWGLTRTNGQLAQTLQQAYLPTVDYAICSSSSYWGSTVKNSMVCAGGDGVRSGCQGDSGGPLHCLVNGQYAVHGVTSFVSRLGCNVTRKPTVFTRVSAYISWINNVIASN
# Assay info: in vitro
# Experimental conditions: isolated enzyme elastase, pH 8, Residual peak area (%)/elastase
Assay readout: remaining at 0.15 h, 60 μM
Give the number first and the unit second.

Specify the recorded remaining at 0.15 h, 60 μM for CC(C)C[C@H](NC(=O)[C@H](Cc1ccc(O)cc1)NC(=O)[C@H](CCC(=O)O)NC(=O)[C@H](CCC(=O)O)NC(=O)[C@H](Cc1c[nH]c2ccccc12)NC(=O)[C@H](CO)NC(=O)[C@@H](NC(=O)[C@H](Cc1ccccc1)NC(=O)[C@@H](NC(=O)[C@@H](N)[C@@H](C)O)C(C)C)[C@@H](C)O)C(=O)N[C@@H](CC(=O)O)C(=O)N[C@@H](Cc1c[nH]c2ccccc12)C(=O)N[C@H](C(=O)O)C(C)C [PCSK9_1, reference compound] , system: elastase (Sus scrofa).
79.6%

###

# Target or test system: α-chymotrypsin (Bos taurus, UniProt P00766)
Bridge positions count the residues as written; N and C are the ends. Peptide text beside a SMILES is read from it.
Provide the recorded IC50 for the entries that follow.

Fill in reported IC50 for this entry: CC[C@H](C)[C@@H]1NC(=O)[C@H](CO)NC(=O)[C@H](Cc2ccccc2)NC(=O)[C@H]([C@@H](C)O)NC(=O)CNC(=O)[C@H](Cc2ccccc2)NC(=O)CNC(=O)[C@@H](N)CSSC[C@@H](C(=O)N[C@@H](Cc2ccc(O)cc2)C(=O)NCC(=O)O)NC(=O)[C@H](CCC(N)=O)NC(=O)[C@@H]2CCCN2C(=O)[C@@H]2CCCN2C1=O [CH7] (H-CGFGTFSIPPQCYG-OH; disulfide 1-12; N-terminus and C-terminus assumed)
22.3 µM

Fill in reported IC50 for this entry: CC(C)C[C@H](NC(=O)[C@@H]1CSSC[C@H](NC(=O)[C@@H](N)CCCNC(=N)N)C(=O)N[C@@H](CC(=O)O)C(=O)N[C@@H](Cc2ccccc2)C(=O)N[C@@H](CO)C(=O)N[C@@H](Cc2c[nH]c3ccccc23)C(=O)N2CCC[C@H]2C(=O)N2CCC[C@H]2C(=O)N[C@@H](CCCNC(=N)N)C(=O)N1)C(=O)O [CH42] (H-RCDFSWPPRCL-OH; disulfide 2-10; N-terminus and C-terminus assumed)
> 50 µM

Fill in reported IC50 for this entry: CC[C@H](C)[C@@H]1NC(=O)[C@@H]2CCCN2C(=O)[C@@H]2CCCN2C(=O)[C@H]([C@@H](C)CC)NC(=O)[C@H](CO)NC(=O)[C@H](Cc2ccc(O)cc2)NC(=O)[C@H](CC(C)C)NC(=O)[C@@H](NC(=O)[C@H](CCCCN)NC(=O)CN)CSSC[C@@H](C(=O)N[C@@H](Cc2ccccc2)C(=O)N2CCC[C@H]2C(=O)N[C@@H](CC(N)=O)C(=O)O)NC1=O [CH20] (H-GKCLYSIPPICFPN-OH; disulfide 3-11; N-terminus and C-terminus assumed)
16.4 µM
